experiment: solvent given as SMILES; conditions: in CCNC=O

{"STRUCTURE": "C=CCCCCCC", "solvation free energy, 298 K / kcal/mol": -3.97}
{"STRUCTURE": "ClC(Cl)Cl", "solvation free energy, 298 K / kcal/mol": -4.41}
{"STRUCTURE": "COC(C)(C)C", "solvation free energy, 298 K / kcal/mol": -3.21}
{"STRUCTURE": "CCOC(C)(C)C", "solvation free energy, 298 K / kcal/mol": -3.38}
{"STRUCTURE": "CCCC(C)=O", "solvation free energy, 298 K / kcal/mol": -4.69}
{"STRUCTURE": "CC(C)O", "solvation free energy, 298 K / kcal/mol": -5.03}
{"STRUCTURE": "C=CCCCC", "solvation free energy, 298 K / kcal/mol": -2.85}

----------
assay: solvent given as SMILES; conditions: in CCOCCO
# solvation free energy, 298 K listing for each entry below

{"STRUCTURE": "Cc1cccc(C(=O)O)c1", "solvation free energy, 298 K, kcal/mol": -10.1}
{"STRUCTURE": "CCCOC(C)=O", "solvation free energy, 298 K, kcal/mol": -4.71}
{"STRUCTURE": "CC(C)O", "solvation free energy, 298 K, kcal/mol": -4.87}
{"STRUCTURE": "[HH]", "solvation free energy, 298 K, kcal/mol": 1.7}
{"STRUCTURE": "COc1ccccc1C(=O)O", "solvation free energy, 298 K, kcal/mol": -11.5}
{"STRUCTURE": "CCOC(=O)CC", "solvation free energy, 298 K, kcal/mol": -4.58}

----------
Listed here: items and their measured solvation free energy, 298 K.
assay: solvent given as SMILES; conditions: in COC(C)(C)C

{"COMPOUND": "CC(C)CCl", "solvation free energy, 298 K [kcal/mol]": -4.13}
{"COMPOUND": "c1ccc2c(c1)ccc1ccccc12", "solvation free energy, 298 K [kcal/mol]": -10.7}
{"COMPOUND": "CC(C)O", "solvation free energy, 298 K [kcal/mol]": -4.22}
{"COMPOUND": "O=C(O)c1ccccc1O", "solvation free energy, 298 K [kcal/mol]": -10.2}
{"COMPOUND": "FC(F)(Cl)C(F)(Cl)Cl", "solvation free energy, 298 K [kcal/mol]": -3.62}
{"COMPOUND": "CN1CCCCC1", "solvation free energy, 298 K [kcal/mol]": -4.8}
{"COMPOUND": "O=C(c1ccccc1)C(O)c1ccccc1 (stereo unspecified)", "solvation free energy, 298 K [kcal/mol]": -14.8}
{"COMPOUND": "O=C1c2ccccc2-c2ccccc21", "solvation free energy, 298 K [kcal/mol]": -11}
{"COMPOUND": "CC1CCCCC1", "solvation free energy, 298 K [kcal/mol]": -4.8}
{"COMPOUND": "CCCCCl", "solvation free energy, 298 K [kcal/mol]": -4.3}
{"COMPOUND": "C(=Cc1ccccc1)c1ccccc1", "solvation free energy, 298 K [kcal/mol]": -10.9}

----------
# reported solvation free energy, 298 K; entries follow
assay: solvent given as SMILES; details: in CCCCCCCC
OBSERVABLE: solvation free energy, 298 K (kcal/mol)

{"MOLECULE": "CCCC(C)C(C)O (stereo not drawn)", "RECORDED_NUMBER": -5.31}
{"MOLECULE": "CCCC", "RECORDED_NUMBER": -2.49}
{"MOLECULE": "CC(C)CCO", "RECORDED_NUMBER": -3.98}
{"MOLECULE": "Cc1ccccc1N", "RECORDED_NUMBER": -6.34}
{"MOLECULE": "CC(C)C(C)(C)O", "RECORDED_NUMBER": -4.6}
{"MOLECULE": "O=[N+]([O-])c1ccccc1O", "RECORDED_NUMBER": -6.49}
{"MOLECULE": "O", "RECORDED_NUMBER": -0.73}
{"MOLECULE": "CC(C)(C)CCO", "RECORDED_NUMBER": -4.85}
{"MOLECULE": "CCCC(C)=O", "RECORDED_NUMBER": -3.87}
{"MOLECULE": "Cc1ccc(O)c(O)c1", "RECORDED_NUMBER": -7.02}
{"MOLECULE": "CCC(O)(CC)CC", "RECORDED_NUMBER": -5.42}
{"MOLECULE": "CCC", "RECORDED_NUMBER": -1.74}
{"MOLECULE": "Clc1c(Cl)c(Cl)c(Cl)c(Cl)c1Cl", "RECORDED_NUMBER": -10.3}

Measured values drawn from the CombiSolv-Exp solvation set (Vermeire and Green 2021) for this set.
